This collection of values is drawn from ChEMBL document CHEMBL1122019.

Species: Oryctolagus cuniculus
Assay: Ratio of I50 of compound and I50 of theophylline for inhibition of cAMP phosphodiesterase isolated from rabbit kidney
Endpoint name: Ratio

CCOC(=O)c1cnc2c(Br)cnn2c1O
1
CCOC(=O)c1cnc2c(C(=O)OCC)cnn2c1N
2
CCOC(=O)c1cnc2c(Br)cnn2c1NCCO
3.1
CCOC(=O)c1cnc2ccnn2c1S
1

A. CCOC(=O)c1cnc2c(CC)cnn2c1SCC
B. CCOC(=O)c1cnc2ccnn2c1NCC(=O)O
C. CCOC(=O)c1cnc2c(C(=O)OCC)cnn2c1O
D. CCCNc1c(C(=O)OCC)cnc2c(CC)cnn12
Ordering: ascending Ratio. Could you list the labels in the order requested? C, B, D, A
(C: 0.4, B: 1.2, D: 3.2, A: 5.5)

a. CCOC(=O)c1cnc2c(Br)cnn2c1NCC(=O)O
b. CCOC(=O)c1cnc2c(Br)cnn2c1N(CC)CC
c. CCOC(=O)c1cnc2ccnn2c1NCCO
Parameters: sort_field (Ratio), sort_dir (desc). I would appreciate it if you listed the labels in the requested order. b, a, c

a. CCNc1c(C(=O)OCC)cnc2ccnn12
b. CCOC(=O)c1cnc2c(CC)cnn2c1NN(C)C
Higher Ratio: a or b ? // return label of chosen record a

1. CCCOc1c(C(=O)OCC)cnc2c(CC)cnn12
2. CCOc1cnc2c(CC)cnn2c1NCCC(=O)O
Between 1 and 2 , which one shows the larger Ratio value? Answer = label. 1

1. CCNc1c(C(=O)OCC)cnc2c(Br)cnn12
2. CCOC(=O)c1cnc2ccnn2c1SCC
Pick the one with the larger Ratio: 1 vs 2 Use the label to indicate which entry you chose. 1
(1: 8, 2: 0.8)

a. CCCNc1c(C(=O)OCC)cnc2c(Br)cnn12
b. CCOc1cnc2c(CC)cnn2c1NCC(=O)O
c. CCOC(=O)c1cnc2ccnn2c1N(CC)CC
Order each entry by recorded Ratio, climbing from the minimum. Would you mind listing the labels in the order asked for? b, c, a
(b: 0.4, c: 2, a: 7.2)

a. CCCOc1c(C(=O)OCC)cnc2ccnn12
b. CCCOc1c(OCC)cnc2c(CC)cnn12
c. CCCNc1c(C(=O)OCC)cnc2ccnn12
Ordering: ascending Ratio. Sort and list the labels as requested. a, b, c

P. CCOC(=O)c1cnc2ccnn2c1NN(C)C
Q. CCOC(=O)c1cnc2ccnn2c1Cl
R. CCCNc1c(OCC)cnc2c(CC)cnn12
Order the entries by their reported Ratio, beginning at the minimum. Sort and list the labels as requested. Q, P, R

1. CCOC(=O)c1cnc2ccnn2c1N
2. CCCOc1c(C(=O)OCC)cnc2c(Br)cnn12
Rank 1 against 2 by their Ratio values and give the higher one. Kindly state the label of the option you pick. 2
